- Tested on: blé
- measurement.protocol: Exemple C: selectivity test in field crops, pre-emergence (crop); further: ranges in brackets are in %
- Format: in vivo
- condition.info: dose 1 Kg m.a./ha, 24 days, 0 or 1 = selective
- Description: Exemple C - Essai de sélectivité en grandes cultures avec application herbicide, en prélevée des espèces végétales Dans des pots de 7 X 7 X 8 cm remplis de terre agricole légère, on sème un nombre de graines déterminé en fonction de l'espèce végétale et de la grosseur de la graine. […] Les pots sont alors traités par pulvérisation de bouillie en quantité correspondant à une dose volumique d'application de 500 l/ha et contenant la matière active à la concentration désirée. […]
assay.readout: Notation de l'activité herbicide TRZ

CS(=O)(=O)OCC(O)(CS(=O)(=O)c1cccs1)c1cc(Cl)cc(Cl)c1 (stereo not drawn) [compound 56] = 2 (50 à 70)
C=C(CS(=O)(=O)c1sc(C)nc1C)c1cc(C)cc(C)c1 [compound 46] = 0 (90 à 100)
O=S(=O)(CC(O)(CBr)c1cc(Cl)cc(Cl)c1)c1cccs1 (stereo not drawn) [compound 62] = 2 (50 à 70)
C=C(CS(=O)(=O)c1sc(C)nc1C)c1cccc(F)c1 [compound 45] = 1 (70 à 90)
C=C(CS(=O)(=O)c1cc(C)sc1C)c1ccccc1 [compound 51] = 0 (90 à 100)

Query: Provide value of Notation de l'activité herbicide TRZ for this record tested with blé: Cc1ccsc1S(=O)(=O)CC(O)(CBr)c1ccccc1 (stereo not drawn) [compound 63]
Result: 3 (30 à 50)

Query: Provide value of Notation de l'activité herbicide TRZ for this record tested with blé: C=C(CS(=O)(=O)c1sc(C)nc1C)c1cccc(C)c1 [compound 47]
Result: 0 (90 à 100)

Query: Provide value of Notation de l'activité herbicide TRZ for this record tested with blé: O=S(=O)(CC(O)(CBr)c1cccc(Cl)c1)c1ccsc1 (stereo not drawn) [compound 64]
Result: 0 (90 à 100)

Query: Provide value of Notation de l'activité herbicide TRZ for this record tested with blé: Cc1cc(C(O)(CBr)CS(=O)(=O)c2ccsc2)ccc1F (stereo not drawn) [compound 66]
Result: 1 (70 à 90)

----------
- System: riz
- measurement.protocol: Exemple C: selectivity test in field crops, pre-emergence (crop); further: ranges in brackets are in %
- Type: in vivo
- condition.info: dose 0.5 Kg m.a./ha, 24 days, 0 or 1 = selective
As shown below, each of these compounds has a reported Notation de l'activité herbicide ORY value.

O=S(=O)(CC(O)(CBr)c1cccc(F)c1)c1sccc1Cl (stereo not shown) = 0 (90 à 100)
O=S(=O)(CC(O)(CBr)c1cccc(F)c1)c1cccs1 (stereo not shown) = 3 (30 à 50)
CC(=O)OC(CBr)(CS(=O)(=O)c1sccc1Br)c1ccccc1 (stereo not shown) = 0 (90 à 100)

Attention now turns to another entry.
Query: Could you tell me which Notation de l'activité herbicide ORY is on file for O=S(=O)(CC(O)(CBr)c1ccc(F)c(Cl)c1)c1ccsc1 (stereo not shown) ?
Result: 3 (30 à 50)

----------
As shown below, each of these compounds has a reported Notation de l'activité herbicide ZEA value.
- Test system: maïs
- measurement.protocol: Exemple C: selectivity test in field crops, pre-emergence (crop); further: ranges in brackets are in %
- Assay type: in vivo
- condition.info: dose 1 Kg m.a./ha, 24 days, 0 or 1 = selective

Below, each entry is followed by its recorded Notation de l'activité herbicide ZEA result.
O=S(=O)(CC(O)(CBr)c1cccc(Cl)c1)c1ccsc1 (stereo not drawn) = 2 (50 à 70)
C=C(CS(=O)(=O)c1cc(C)sc1C)c1ccccc1 = 0 (90 à 100)
Cc1cc(C(O)(CBr)CS(=O)(=O)c2ccsc2)ccc1F (stereo not drawn) = 2 (50 à 70)

Query: Could you tell me which Notation de l'activité herbicide ZEA is on file for Cc1ccsc1S(=O)(=O)CC(O)(CBr)c1ccccc1 (stereo not drawn) ?
Result: 2 (50 à 70)

Query: Could you tell me which Notation de l'activité herbicide ZEA is on file for C=C(CS(=O)(=O)c1sc(C)nc1C)c1cccc(C)c1 ?
Result: 1 (70 à 90)

----------
- Tested on: riz
- measurement.protocol: Exemple C: selectivity test in field crops, pre-emergence (crop); further: ranges in brackets are in %
- Type: in vivo
- condition.info: dose 1 Kg m.a./ha, 24 days, 0 or 1 = selective
assay.readout: Notation de l'activité herbicide ORY

Below, each entry is followed by its recorded Notation de l'activité herbicide ORY result.
C=C(CS(=O)(=O)c1sc(C)nc1C)c1cc(C)cc(C)c1 = 0 (90 à 100)
O=S(=O)(CC(O)(CBr)c1cccc(Cl)c1)c1ccsc1 (stereo not drawn) = 2 (50 à 70)
Cc1cc(C(O)(CBr)CS(=O)(=O)c2ccsc2)ccc1F (stereo not drawn) = 2 (50 à 70)
C=C(CS(=O)(=O)c1sc(C)nc1C)c1cccc(F)c1 = 0 (90 à 100)
O=S(=O)(CC(O)(CBr)c1cc(Cl)cc(Cl)c1)c1cccs1 (stereo not drawn) = 2 (50 à 70)
Cc1ccsc1S(=O)(=O)CC(O)(CBr)c1ccccc1 (stereo not drawn) = 4 (10 à 30)

Query: Could you tell me which Notation de l'activité herbicide ORY is on file for C=C(CS(=O)(=O)c1cc(C)sc1C)c1ccccc1 ?
Result: 0 (90 à 100)

Query: Could you tell me which Notation de l'activité herbicide ORY is on file for C=C(CS(=O)(=O)c1sc(C)nc1C)c1cccc(C)c1 ?
Result: 2 (50 à 70)

Query: Could you tell me which Notation de l'activité herbicide ORY is on file for CS(=O)(=O)OCC(O)(CS(=O)(=O)c1cccs1)c1cc(Cl)cc(Cl)c1 (stereo not drawn) ?
Result: 2 (50 à 70)

----------
As shown below, each of these compounds has a reported Notation de l'activité herbicide GLY value.
- Test system: soja
- measurement.protocol: Exemple C: selectivity test in field crops, pre-emergence (crop); further: ranges in brackets are in %
- Assay type: in vivo
- condition.info: dose 1 Kg m.a./ha, 24 days, 0 or 1 = selective
- Excerpt: Exemple C - Essai de sélectivité en grandes cultures avec application herbicide, en prélevée des espèces végétales Dans des pots de 7 X 7 X 8 cm remplis de terre agricole légère, on sème un nombre de graines déterminé en fonction de l'espèce végétale et de la grosseur de la graine. […] Les pots sont alors traités par pulvérisation de bouillie en quantité correspondant à une dose volumique d'application de 500 l/ha et contenant la matière active à la concentration désirée. […]

Below, each entry is followed by its recorded Notation de l'activité herbicide GLY result.
C=C(CS(=O)(=O)c1sc(C)nc1C)c1cccc(F)c1 = 0 (90 à 100)
CS(=O)(=O)OCC(O)(CS(=O)(=O)c1cccs1)c1cc(Cl)cc(Cl)c1 (centres unmarked) = 0 (90 à 100)
C=C(CS(=O)(=O)c1sc(C)nc1C)c1cccc(C)c1 = 0 (90 à 100)
Cc1cc(C(O)(CBr)CS(=O)(=O)c2ccsc2)ccc1F (centres unmarked) = 1 (70 à 90)

Query: Provide value of Notation de l'activité herbicide GLY for this record tested with soja: C=C(CS(=O)(=O)c1cc(C)sc1C)c1ccccc1
Result: 0 (90 à 100)

----------
As shown below, each of these molecules has a reported Notation de l'activité herbicide PAN value.
- Test system: Panicum milicaeum
- measurement.protocol: Exemple C: selectivity test in field crops, pre-emergence (weed)
- Assay type: in vivo
- condition.info: dose 1 Kg m.a./ha, 24 days

Below, each entry is followed by its recorded Notation de l'activité herbicide PAN result.
C=C(CS(=O)(=O)c1sc(C)nc1C)c1cccc(C)c1 = 5 (O à 10)
C=C(CS(=O)(=O)c1sc(C)nc1C)c1cccc(F)c1 = 5 (O à 10)

Query: Could you tell me which Notation de l'activité herbicide PAN is on file for CS(=O)(=O)OCC(O)(CS(=O)(=O)c1cccs1)c1cc(Cl)cc(Cl)c1 (stereo not drawn) ?
Result: 5 (O à 10)

Query: Could you tell me which Notation de l'activité herbicide PAN is on file for C=C(CS(=O)(=O)c1cc(C)sc1C)c1ccccc1 ?
Result: 4 (10 à 30)

Query: Could you tell me which Notation de l'activité herbicide PAN is on file for Cc1ccsc1S(=O)(=O)CC(O)(CBr)c1ccccc1 (stereo not drawn) ?
Result: 4 (10 à 30)

Query: Could you tell me which Notation de l'activité herbicide PAN is on file for Cc1cc(C(O)(CBr)CS(=O)(=O)c2ccsc2)ccc1F (stereo not drawn) ?
Result: 3 (30 à 50)

Query: Could you tell me which Notation de l'activité herbicide PAN is on file for O=S(=O)(CC(O)(CBr)c1cc(Cl)cc(Cl)c1)c1cccs1 (stereo not drawn) ?
Result: 4 (10 à 30)

Query: Could you tell me which Notation de l'activité herbicide PAN is on file for C=C(CS(=O)(=O)c1sc(C)nc1C)c1cc(C)cc(C)c1 ?
Result: 5 (O à 10)

Query: Could you tell me which Notation de l'activité herbicide PAN is on file for O=S(=O)(CC(O)(CBr)c1cccc(Cl)c1)c1ccsc1 (stereo not drawn) ?
Result: 5 (O à 10)
